All values here come from paper PMC12340956.

- experimentSummary: MTT cytotoxicity in RPE cells
- Type: cell-based
- studyConditions: human, retinal pigment epithelial (RPE) cells, 5 μM, read-out: percentage of viability, 72 h
Note to self: use Satisfied only for viability at 72 h, 5 µM readings below 90%; a reading exactly at 90% still gets Not satisfied.

* NC1CC1c1ccc(NC(=O)c2ccc(-c3ccccc3)cc2)cc1 (stereo not drawn) | Not satisfied
* CN1CCN(c2cc(C(=O)Nc3ccc(C4CC4N)cc3)ccc2NC(=O)OCc2ccccc2)CC1 (stereo not drawn) | Satisfied
* CC#Cc1ccc(C(=O)Nc2ccc(C3CC3N)cc2)cc1.Cl (stereo not drawn) | Satisfied
* C#Cc1ccc(C(=O)Nc2ccc(C3CC3N)cc2)cc1 (stereo not drawn) [MC3935, reference compound] | Satisfied

----------
Each entry below carries its recorded IC50.
- System: S. mansoni juvenile forms
- experimentSummary: Speed-of-action assay in juvenile forms
- Format: cell-based, Schistosoma mansoni
- studyConditions: Schistosoma mansoni, 48 h; read-out: IC50 (speed of action, juvenile forms)
reportedMetric: IC50

- CCCc1ccc(C(=O)Nc2ccc(C3CC3N)cc2)cc1.Cl (stereo not drawn): > 20 µM
- CC#Cc1ccc(C(=O)Nc2ccc(C3CC3N)cc2)cc1.Cl (stereo not drawn): > 20 µM
- Cl.NC1CC1c1ccc(NC(=O)c2ccc(C#CC3CC3)cc2)cc1 (stereo not drawn): > 20 µM

----------
- System: NTS
- experimentSummary: Speed-of-action assay in NTS
- Assay type: cell-based, Schistosoma mansoni
- studyConditions: NTS, 4 h, 10 μM
- Excerpt: To better characterize a selection of our LSD1i in vitro, we assessed the onset of their action, defined as the time required for an observable antischistosomal effect. […] For detailed percentages of activity at each time point, refer to the Supporting Information (Tables S2 and S3 in Supporting Information).
Each entry below carries its recorded Percentage of effect.
reportedMetric: Percentage of effect (%)

• Cl.NC1CC1c1ccc(NC(=O)c2ccc(C#CC3CC3)cc2)cc1 (centres unmarked) [Compound 19] = 30.77
• CCCc1ccc(C(=O)Nc2ccc(C3CC3N)cc2)cc1.Cl (centres unmarked) [Compound 15] = 21.15
• CC#Cc1ccc(C(=O)Nc2ccc(C3CC3N)cc2)cc1.Cl (centres unmarked) [Compound 18] = 26.92
• C#Cc1ccc(C(=O)Nc2ccc(C3CC3N)cc2)cc1 (centres unmarked) [MC3935, reference compound] = 21.15
• NC1CC1c1ccc(NC(=O)c2ccc(-c3ccccc3)cc2)cc1 (centres unmarked) [Compound 2] = 30.77

----------
- Tested on: NTS
- experimentSummary: Speed-of-action assay in NTS
- Type: cell-based, Schistosoma mansoni
- studyConditions: Schistosoma mansoni, 48 h, read-out: IC50 (speed of action, NTS)
pIC50: −log10 of the molar value.
reportedMetric: pIC50

* C#Cc1ccc(C(=O)Nc2ccc(C3CC3N)cc2)cc1 (centres unmarked) [MC3935, reference compound] | 4.75
* NC1CC1c1ccc(NC(=O)c2ccc(-c3ccccc3)cc2)cc1 (centres unmarked) [Compound 2] | 5.40

----------
- Tested on: S. mansoni juvenile forms
- experimentSummary: Speed-of-action assay in juvenile forms
- Type: cell-based, Schistosoma mansoni
- studyConditions: Schistosoma mansoni, 4 h; read-out: IC50 (speed of action, juvenile forms)
pIC50: −log10 of the molar value.
reportedMetric: pIC50

- CCCc1ccc(C(=O)Nc2ccc(C3CC3N)cc2)cc1.Cl (stereo not drawn): < 4.70
- Cl.NC1CC1c1ccc(NC(=O)c2ccc(C#CC3CC3)cc2)cc1 (stereo not drawn): < 4.70
- CC#Cc1ccc(C(=O)Nc2ccc(C3CC3N)cc2)cc1.Cl (stereo not drawn): < 4.70
